- System: Prevotella buccae
- Run Description: Antimicrobial activity against Prevotella buccae ATCC 33574 by agar dilution method in presence of 5% laked sheep blood
- Assay type: functional
- Condition Info: Segatella buccae
Below, each entry is listed alongside its reported MIC.
Endpoint Name: MIC (µg/mL)

Substance Smiles: Cc1ncc([N+](=O)[O-])n1CCO
Endpoint Name: MIC
Qualifier Symbol: =
Value: 0.5

Substance Smiles: CCC[C@@H]1C[C@@H](C(=O)N[C@@H]([C@H]2O[C@H](SC)[C@H](O)[C@@H](O)[C@H]2O)[C@H](C)Cl)N(C)C1
Endpoint Name: MIC
Qualifier Symbol: ≤
Value: 0.03

Substance Smiles: C[C@@H](O)[C@H]1C(=O)N2C(C(=O)O)=C(S[C@@H]3CN[C@H](C(=O)N(C)C)C3)[C@H](C)[C@H]12
Endpoint Name: MIC
Qualifier Symbol: =
Value: 0.25

Substance Smiles: C[C@@H](O)[C@H]1C(=O)N2C(C(=O)O)=C(S[C@H]3C[C@@H](C(=O)N4CC[C@H](NC(=O)CNC(=N)N)C4)N(C)C3)[C@H](C)[C@H]12
Endpoint Name: MIC
Qualifier Symbol: =
Value: 0.25

Substance Smiles: CC(=N)N1CC[C@H](SC2=C(C(=O)O)N3C(=O)[C@H]([C@@H](C)O)[C@H]3C2)C1
Endpoint Name: MIC
Qualifier Symbol: =
Value: 0.25

Substance Smiles: C[C@@H](O)[C@H]1C(=O)N2C(C(=O)O)=C(S[C@@H]3CN[C@H](CNS(N)(=O)=O)C3)[C@H](C)[C@H]12
Endpoint Name: MIC
Qualifier Symbol: =
Value: 0.25

Origin of measurements: ChEMBL document CHEMBL1275576
